Here the recorded composite z-score is given for each entry.
system.under.test: Albumin (Bos taurus) (UniProt P02769)
Sequence (P02769 whole entry, looked up): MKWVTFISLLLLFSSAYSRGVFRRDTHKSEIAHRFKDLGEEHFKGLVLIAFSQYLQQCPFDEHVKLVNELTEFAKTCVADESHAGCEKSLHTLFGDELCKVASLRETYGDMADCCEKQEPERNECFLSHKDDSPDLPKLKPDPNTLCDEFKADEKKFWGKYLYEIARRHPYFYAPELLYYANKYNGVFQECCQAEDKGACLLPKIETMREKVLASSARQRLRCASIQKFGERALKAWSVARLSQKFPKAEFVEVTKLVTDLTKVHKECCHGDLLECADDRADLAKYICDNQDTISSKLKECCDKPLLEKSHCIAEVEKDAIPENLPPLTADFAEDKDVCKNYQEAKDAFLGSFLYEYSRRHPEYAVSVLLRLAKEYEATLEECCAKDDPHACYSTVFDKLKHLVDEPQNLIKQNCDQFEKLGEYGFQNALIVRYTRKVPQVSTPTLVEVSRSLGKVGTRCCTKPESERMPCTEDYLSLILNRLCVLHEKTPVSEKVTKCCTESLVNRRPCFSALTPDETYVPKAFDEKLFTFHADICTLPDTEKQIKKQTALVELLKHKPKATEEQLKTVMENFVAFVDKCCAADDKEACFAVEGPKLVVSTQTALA
experimental.protocol: compounds binding labelled BSA control protein – biochemical, small-molecule microarray, Alexa647 label, 635/667 nm fluorescence, artefact control for SMM control protein annotation, profiling panel (AID 1118);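 also: score merges 667 nm emission intensity and signal-to-noise per printed compound spot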
run.conditions: BSA-A647 binding, fluorescence 635 nm, higher = more signal

[
  {
    "structure.as.smiles": "Cc1ccc(S[C@]2(C(=O)NCCN3CCOCC3)CC(=O)N(C3Cc4ccccc4C3)[C@@H]2c2ccc(CO)cc2)cc1",
    "system.under.test": "Albumin (Bos taurus) (UniProt P02769)",
    "composite z-score": 0.0022
  },
  {
    "structure.as.smiles": "CCCN1C(=O)[C@@]2(Cc3ccccc3)N=C(c3ccc(OCCCO)cc3)O[C@H]2c2ccccc21",
    "system.under.test": "Albumin (Bos taurus) (UniProt P02769)",
    "composite z-score": 0.508
  },
  {
    "structure.as.smiles": "CC(C)C[C@@H]1NC(=O)[C@@H]2C[C@H](C(=O)NCc3ccc(F)cc3)[C@H](c3ccc(O)cc3)N2C1=O",
    "system.under.test": "Albumin (Bos taurus) (UniProt P02769)",
    "composite z-score": -0.674
  },
  {
    "structure.as.smiles": "Cc1ccc(S[C@]2(C(=O)O)CC(=O)N(C3CCCCC3)[C@@H]2c2ccc(CO)cc2)cc1",
    "system.under.test": "Albumin (Bos taurus) (UniProt P02769)",
    "composite z-score": 0.242
  },
  {
    "structure.as.smiles": "CC(C)(C)OC(=O)CC[C@]1(C(=O)O)COC(c2ccc(OCCCO)cc2)=N1",
    "system.under.test": "Albumin (Bos taurus) (UniProt P02769)",
    "composite z-score": 0.374
  },
  {
    "structure.as.smiles": "COCCOC(=O)N1C(=O)[C@@]2(c3cc(C#Cc4ccc(OC)cc4)ccc31)[C@H](C(=O)N1CCc3cc(OC)c(OC)cc3C1)[C@H]1C(=O)O[C@H](c3ccccc3)[C@H](c3ccccc3)N1[C@@H]2c1ccc(O)cc1",
    "system.under.test": "Albumin (Bos taurus) (UniProt P02769)",
    "composite z-score": -0.237
  },
  {
    "structure.as.smiles": "CN(C)CCCC[C@@H]1NC(=O)[C@H]2C[C@@H](C(=O)NCCCCCCNC(=O)CS)[C@@H](c3ccc(O)cc3)N2C1=O",
    "system.under.test": "Albumin (Bos taurus) (UniProt P02769)",
    "composite z-score": 0.468
  }
]

----------
experimental.protocol: ATP-based viability of Huh7 replicon cells – cell-based, CellTiter-Glo luminescence, basal, 48 h, cytotoxicity control for HCV replication inhibitor project, primary screen (AID 1143);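 also: Huh7 hepatoma cells carrying a hepatitis C replication reporter with no stimulus; test concentration not given here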
run.conditions: higher = more signal, called active from +8 up or from −8 down
The source made the active and inactive calls.
Here the recorded z-score is given for each entry.
measured.metric: z-score

[
  {
    "compound": "O=C1C2C=CC(C(O)c3cccc4ccccc34)N(Nc3ccccc3)C2C(=O)N1c1ccccc1 (centres undefined)",
    "observed": "-1.3 (inactive)"
  },
  {
    "compound": "COC(=O)C(CC#Cc1ccc2c(c1)[C@]1(C(=O)N2)[C@H](c2ccc(O)cc2)N2[C@H](c3ccccc3)[C@H](c3ccccc3)OC(=O)[C@H]2[C@@H]1C(=O)O)C(=O)OC",
    "observed": "-0.627 (inactive)"
  },
  {
    "compound": "COCC(=C=CC[C@@H](O)c1ccccc1OCCO)C[C@@H](O)COCc1ccccc1",
    "observed": "-1.43 (inactive)"
  },
  {
    "compound": "NC(=O)[C@@H]1[C@H]2C(=O)O[C@H](c3ccccc3)[C@H](c3ccccc3)N2[C@H](c2ccccc2OCCO)[C@@]12C(=O)Nc1ccc(C#CCCO)cc12",
    "observed": "-3.21 (inactive)"
  },
  {
    "compound": "C#CCOC(=O)N[C@H](C=CCCCC)c1ccccc1",
    "observed": "-0.342 (inactive)"
  },
  {
    "compound": "OCc1ccc(-c2cc[n+](Cc3cccc(OC(F)(F)F)c3)cc2)cc1",
    "observed": "-1.64 (inactive)"
  },
  {
    "compound": "C=C(COC)C(=O)CC[C@H](OC(=O)c1ccccc1-c1ccccc1C(=O)O)c1ccc(OCCO)cc1",
    "observed": "-0.0319 (inactive)"
  },
  {
    "compound": "O=[N+]([O-])c1ccc(C[n+]2ccc(-c3ccc(CO)cc3)cc2)o1",
    "observed": "-1.13 (inactive)"
  },
  {
    "compound": "CN(C)CCCCNC(=O)[C@H]1C[C@H]2C(=O)N[C@@H](CCCC[N+](C)(C)C)C(=O)N2[C@H]1c1cccc(OCCO)c1",
    "observed": "-0.255 (inactive)"
  }
]

----------
experimental.protocol: change in splice reporter luminescence, either direction, cell-based, HEK293, spliceosome inhibition project, primary screen (AID 1101);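 also: HEK293 cells carrying a splicing-competent luciferase reporter gene; test concentration not given here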
run.conditions: HEK293 splicing luciferase reporter, 24 h, higher = more signal, called active from +8 up or from −8 down
# if value of z-score reaches -0.4, tag y; if it stays below, tag n

[
  {
    "compound": "COc1cc2c(cc1OC)CN(C(=O)[C@@H]1[C@H]3C(=O)O[C@H](c4ccccc4)[C@H](c4ccccc4)N3[C@H](c3ccc(OCCO)cc3)[C@@]13C(=O)Nc1ccc(C#CCCO)cc13)CC2",
    "classification": "n"
  },
  {
    "compound": "COC(=O)[C@@]1(Cc2ccc(OC)cc2)[C@H]2c3cc(C(=O)N(C)C)n(CCF)c3C[C@H]2CN1C(=O)c1ccccc1",
    "classification": "n"
  },
  {
    "compound": "CC(C)C[C@@H]1NC(=O)[C@@]23C(=O)N[C@@H](Cc4ccccc4)C2[C@H](C)[C@@]2(C)O[C@H]2C3/C=C/C/C=C\\CNC(=O)[C@@H]2CCCN2C1=O (stereo partly specified)",
    "classification": "y"
  },
  {
    "compound": "COC(=O)C(CC#Cc1ccc2c(c1)[C@]1(C(=O)N2)[C@H](c2ccccc2OCCO)N2[C@H](c3ccccc3)[C@H](c3ccccc3)OC(=O)[C@H]2[C@@H]1C(=O)Nc1nc2ccccc2s1)C(=O)OC",
    "classification": "y"
  },
  {
    "compound": "COC(=O)[C@@]1(Cc2ccccc2N=[N+]=[N-])N=C(c2ccc(OCCCO)cc2)O[C@H]1c1ccccc1",
    "classification": "y"
  },
  {
    "compound": "CCOC(=O)C[C@H]1[C@H](OC(=O)c2ccccc2-c2ccccc2)[C@@H](NC(=O)c2ccccc2)c2cc(OCCCO)ccc2N1C(=O)Cc1ccc(OC)cc1",
    "classification": "y"
  }
]

----------
experimental.protocol: viability profiling in MM1S myeloma cells – cell-based, resazurin fluorescence, basal, 24 h, PK04 Diversity Set, profiling panel (AID 1174);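 also: MM1S multiple myeloma cell line; test concentration not given here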
run.conditions: higher = more signal, called active from +8 up or from −8 down
Here the recorded z-score is given for each entry.

[
  {
    "compound": "O=C1c2ccccc2[C@](Cc2ccccc2I)(C(=O)NCC(F)(F)F)[C@H](c2ccc(CO)cc2)N1Cc1ccccc1",
    "z-score": -0.277
  },
  {
    "compound": "N#Cc1ccc(NN2C(C(O)c3ccco3)C=CC3C(=O)N(c4ccccc4)C(=O)C32)cc1 (stereo unspecified)",
    "z-score": -0.512
  },
  {
    "compound": "O=C1O[C@H](c2ccccc2)[C@H](c2ccccc2)N2[C@H]1[C@@H](C(=O)N1CCCCCCC1)[C@]1(C(=O)Nc3ccccc31)[C@H]2c1ccc(O)cc1",
    "z-score": -2.64
  },
  {
    "compound": "C=CCC(OC(C)=O)[C@@H]1[C@@H](N(Cc2cccc3ccccc23)C(=O)Cc2ccc(F)cc2)c2cc(OCCCO)ccc2N1C(=O)Cc1ccc(OC)cc1 (stereo partly specified)",
    "z-score": 0.738
  },
  {
    "compound": "CCOC(=O)C[C@H]1[C@H](OC(=O)c2ccccc2-c2ccccc2)[C@@H](NC(=O)c2ccccc2)c2cc(OCCCO)ccc2N1C(=O)Cc1ccc(OC)cc1",
    "z-score": -0.397
  },
  {
    "compound": "COCCOC(=O)N1C(=O)[C@@]2(c3ccccc31)[C@H](c1ccccc1OCCO)N1[C@H](c3ccccc3)[C@H](c3ccccc3)OC(=O)[C@H]1[C@@H]2C(=O)N1CCc2cc(OC)c(OC)cc2C1",
    "z-score": 0.181
  }
]

----------
Here the recorded z-score is given for each entry.
experimental.protocol: FRG1 expression reporter modulators in myotubes – cell-based, C2C12 myotubes, firefly/Renilla luciferase, luminescence, FRG1 inhibition for FSHD, primary screen (AID 1084)
run.conditions: FRG1 promoter luciferase, higher = more signal, called active from +8 up or from −8 down

[
  {
    "molecule": "COC(=O)[C@@]1(Cc2ccc(F)cc2)[C@@H]2[C@@H](CC(=O)[C@H]2CC(=O)C(=O)N2CCCC2)CN1C(=O)c1ccccc1",
    "z-score": 2.38
  },
  {
    "molecule": "Cc1ccc(S[C@]2(C(=O)NCc3ccccc3)CC(=O)N(C3Cc4ccccc4C3)[C@@H]2c2ccc(CO)cc2I)cc1",
    "z-score": -1.73
  },
  {
    "molecule": "C[N+](C)(C)CCCC[C@@H]1NC(=O)[C@@H]2C[C@H](C(=O)NCCCCCNC(=O)CS)[C@H](c3cccc(OCCO)c3)N2C1=O",
    "z-score": -0.669
  },
  {
    "molecule": "COCCCNC(=O)[C@@H]1c2ccccc2C(=O)N(c2ccc(C)cn2)[C@H]1c1ccc(CO)cc1",
    "z-score": 0.183
  },
  {
    "molecule": "COCCCNC(=O)[C@@]1(C)c2ccccc2C(=O)N(c2ccc(C)cn2)[C@H]1c1ccc(CO)cc1",
    "z-score": 0.811
  },
  {
    "molecule": "CC(C)(C)OC(=O)CC[C@]1(C(=O)N2CCCCC2)N=C(c2ccc(OCCCO)cc2)O[C@H]1c1ccccc1CN=[N+]=[N-]",
    "z-score": -2.88
  },
  {
    "molecule": "CCOC(=O)C[C@H]1[C@H](OC(=O)c2ccc(C(=O)c3ccccc3)cc2)[C@@H](NC(=O)C2CCCCC2)c2cc(OCCCO)ccc2N1C(=O)Cc1ccc(OC)cc1",
    "z-score": -1.01
  },
  {
    "molecule": "CC(C)N1C(=O)c2ccccc2[C@](C)(C(=O)O)[C@@H]1c1ccc(CO)cc1",
    "z-score": 0.726
  },
  {
    "molecule": "CC(C)NC(=O)[C@@]1(Cc2ccccc2I)c2ccccc2C(=O)N(Cc2ccccc2C(F)(F)F)[C@H]1c1ccc(CO)cc1",
    "z-score": -2.61
  },
  {
    "molecule": "C/C=C/[C@@H](CCn1cc([C@H](O)c2ccccc2)nn1)[Si](C)(C)c1ccc(OC)cc1",
    "z-score": -1.41
  },
  {
    "molecule": "C[C@@H]1ON(c2ccccc2)[C@H](c2ccccc2)[C@H]1C(=O)N1C(=O)OC[C@H]1Cc1ccccc1",
    "z-score": -0.114
  },
  {
    "molecule": "Cc1ccccc1C(O)C1C=CC2C(=O)N(Cc3ccccc3)C(=O)C2N1n1cnnc1 (stereo not given)",
    "z-score": 0.253
  },
  {
    "molecule": "CO[C@H]1O[C@H](CO)[C@@H](OC(=O)Nc2cccc(F)c2)[C@H](OC(=O)Nc2ccc3c(c2)OCO3)[C@H]1OC(=O)Nc1ccc2c(c1)OCO2",
    "z-score": 6.24
  },
  {
    "molecule": "CC1CC/C=C\\[C@H]2OC34C=CCN(c5ccc(Cl)cc5)C(=O)[C@H]3N(C(CO)C(C)C)C(=O)[C@]4(C)C2C(=O)O1 (stereo not given in full)",
    "z-score": 0.51
  },
  {
    "molecule": "Cc1ccc(N2C(=O)c3ccccc3[C@](C)(C(=O)NC(C)C)[C@@H]2c2ccc(CO)cc2)nc1",
    "z-score": -0.0923
  }
]
